assay: Clinical study in healthy adult subjects: pharmacokinetics; type: in vivo, human; details: human, plasma, po, 2 mg, single oral dose 2 mg, mean (%CV), read-out: AUC(0-24)
Endpoint label: AUC(0-t) (ng·h/mL)
Report as a plain number; the unit ng·h/mL is understood.

Indicate its recorded AUC(0-t); the compound in question is C[C@H](Nc1ncnc2[nH]cnc12)c1cc2cccc(Cl)c2c(=O)n1-c1ccccc1
289

###

test: 13-week repeat-dose safety study in cynomolgus monkeys; conditions: both sexes, cynomolgus monkey, in vivo, oral, Day 91, combined sexes, 5 mg/kg/day, read-out: mean AUC0-24 hr at the NOAEL
Endpoint label: AUC(0-t) (ng·h/mL)
Reply with just the number (in ng·h/mL).

Return AUC(0-t) for the following compound: C[C@H](Nc1ncnc2[nH]cnc12)c1cc2cccc(Cl)c2c(=O)n1-c1ccccc1
4020

Values compiled from patent US20140120060A1.
